All values here come from ChEMBL document CHEMBL3751783.

Reported pIC50 values are given for each entry in this list.
molecular target: Sodium- and chloride-dependent GABA transporter 1 (Mus musculus, UniProt P31648); experiment: Inhibition of mouse GAT1 mediated [3]GABA uptake expressed in HEK293 cells after 3 mins by scintillation counting
pIC50: −log10 of the molar value.

Below: 3 compounds and their reported pIC50.
{"columns": ["compound", "readoutKind", "testValue"],
 "data": [
  ["O=C(CCN1CCCCC1)N1CCCC12CCCCC2", "pIC50", "< 2.30"],
  ["O=C(CI)N1C(=O)CCC12CCCCC2", "pIC50", "< 3.00"],
  ["O=C(CCN1CCOCC1)N1CCCC12CCCCC2", "pIC50", "< 2.30"]
]}

QUERY: So what's the measured pIC50 for this one? "C=CC(=O)N1C(=O)CCC12CCCCC2"
RESULT: 3.43

QUERY: Which measured pIC50 value corresponds to "CCN(CC)CCC(=O)N1CCCC12CCCCC2" ?
RESULT: < 3.00

QUERY: Requested field: pIC50. Item: C=CC(=O)N1C(=O)CCC12CCCCC2=O (stereo not drawn)
RESULT: < 3.00

QUERY: Item under review: "O=C(CBr)N1C(=O)CCC12CCCCC2" . Reported pIC50?
RESULT: 3.43

QUERY: Fill blank: measured pIC50 of the compound CCOC(=O)C1CCCN(CCC(=O)N2C(=O)CCC23CCCCC3)C1 (stereo not drawn) is ____.
RESULT: < 3.00

QUERY: # lookup: pIC50 of C=CC(=O)N1C(=O)C=CC12CCCC21OCCO1 (stereo not drawn)
RESULT: < 3.00

QUERY: Record request: pIC50 value, item "O=C(O)C1=CCCN(CCON=C(c2ccccc2)c2ccccc2)C1"
RESULT: 6.74

QUERY: Name the recorded pIC50 for O=C(CBr)N1C(=O)CCC12CCCCC2=O (stereo not drawn) .
RESULT: < 3.00

QUERY: // lookup pIC50 for O=C1CCC2(CCCC23OCCO3)N1 (stereo not drawn)
RESULT: < 3.00

QUERY: For the compound shown here, O=C1CCC2(CCCCC2=O)N1 (stereo not drawn) , give the reported pIC50.
RESULT: < 3.00

###

Property: IC50; scope: individual compounds
Target: GABA transporter 2 (Mus musculus, UniProt P31651)
Sequence (P31651 whole entry): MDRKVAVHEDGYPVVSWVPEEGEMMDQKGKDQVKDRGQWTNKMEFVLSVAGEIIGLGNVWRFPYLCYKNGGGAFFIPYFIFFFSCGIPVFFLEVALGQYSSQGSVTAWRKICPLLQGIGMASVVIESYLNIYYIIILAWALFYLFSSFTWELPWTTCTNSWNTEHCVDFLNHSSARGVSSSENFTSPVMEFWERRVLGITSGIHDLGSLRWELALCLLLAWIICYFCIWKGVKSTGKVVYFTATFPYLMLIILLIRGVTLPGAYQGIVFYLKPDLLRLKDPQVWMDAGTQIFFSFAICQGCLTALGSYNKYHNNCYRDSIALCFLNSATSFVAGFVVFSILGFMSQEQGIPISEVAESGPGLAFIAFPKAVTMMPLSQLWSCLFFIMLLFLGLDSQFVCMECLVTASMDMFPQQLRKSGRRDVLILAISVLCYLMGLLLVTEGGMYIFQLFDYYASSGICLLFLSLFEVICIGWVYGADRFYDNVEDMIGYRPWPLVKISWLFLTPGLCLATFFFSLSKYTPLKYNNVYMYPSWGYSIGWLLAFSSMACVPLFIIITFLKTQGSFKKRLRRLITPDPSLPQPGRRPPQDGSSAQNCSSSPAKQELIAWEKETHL
Test: Inhibition of mouse BGT1 mediated [3]GABA uptake expressed in HEK293 cells after 3 mins by scintillation counting

Use these answered entries as a reference point.
{"columns": ["compound", "IC50"],
 "data": [
  ["O=C(CCN1CCCCC1)N1CCCC12CCCCC2", "> 5 mM"],
  ["O=C(CBr)N1C(=O)CCC12CCCCC2", "0.103 mM"],
  ["O=C(O)C1=CCCN(CCON=C(c2ccccc2)c2ccccc2)C1", "> 1 mM"],
  ["O=C1CCC2(CCCC23OCCO3)N1 (centres undefined)", "> 1 mM"],
  ["O=C1C=CC2(CCCC23OCCO3)N1C(=O)CCN1CCOCC1 (centres undefined)", "> 1 mM"],
  ["O=C(CCl)N1C(=O)CCC12CCCCC2", "> 1 mM"],
  ["[N-]=[N+]=NCC(=O)N1C(=O)CCC12CCCCC2", "> 1 mM"],
  ["O=C(CBr)N1CCCC12CCCCC2", "> 5 mM"],
  ["O=C(CCN1CCCC1)N1CCCC12CCCCC2", "> 5 mM"],
  ["CCN(CC)CCC(=O)N1CCCC12CCCCC2", "> 1 mM"]
]}

Query compound follows.
QUERY: Recorded IC50 for O=C(CBr)N1C(=O)CCC12CCCCC2=O (centres undefined) with GABA transporter 2 (Mus musculus, UniProt P31651), please?
RESULT: > 1 mM

###

target: UniProt:P31648; test: Inhibition of mouse GAT1 mediated [3]GABA uptake expressed in HEK293 cells after 3 mins by scintillation counting
pIC50: −log10 of the molar value.
readoutKind: pIC50

Recorded pIC50, per entry:
{"columns": ["compound", "pIC50"],
 "data": [
  ["O=C(CCN1CCCCC1)N1C(=O)CCC12CCCCC2", "< 3.00"],
  ["O=C(CBr)N1CCCC12CCCCC2", 3.63],
  ["CCN(CC)CCC(=O)N1C(=O)CCC12CCCCC2", "< 3.00"],
  ["O=C(CCN1CCCC1)N1C(=O)CCC12CCCCC2", "< 3.00"],
  ["O=C(CCN1CCOCC1)N1C(=O)CCC12CCCCC2", "< 3.00"],
  ["COC(=O)C1=CCCN(CCC(=O)N2CCCC23CCCCC3)C1", 2.69],
  ["O=C(CCN1CCNCC1)N1CCCC12CCCCC2", "< 3.00"],
  ["C=CCN1C(=O)CCC12CCCC21OCCO1 (stereo not given)", "< 3.00"]
]}

QUERY: Reported pIC50 for UniProt:P31648, given "O=C(CCN1CCNCC1)N1C(=O)CCC12CCCCC2" ?
RESULT: < 3.00

QUERY: # get_value(readout= pIC50, system= UniProt:P31648) for "[N-]=[N+]=NCC(=O)N1C(=O)CCC12CCCCC2"
RESULT: < 3.00

QUERY: What is its pIC50 for UniProt:P31648? Entry: O=C1C=CC2(CCCC23OCCO3)N1C(=O)CCN1CCNCC1 (stereo not given)
RESULT: < 3.00

QUERY: Short answer please: pIC50, UniProt:P31648, entry "O=C(CCl)N1C(=O)CCC12CCCCC2"
RESULT: < 3.00

QUERY: Value wanted: pIC50 (UniProt:P31648) of entry O=C1C=CC2(CCCC23OCCO3)N1C(=O)CCN1CCOCC1 (stereo not given)
RESULT: < 3.00

###

Molecular target: GABA transporter 2 (Mus musculus, UniProt P31651)
Sequence (P31651 whole entry): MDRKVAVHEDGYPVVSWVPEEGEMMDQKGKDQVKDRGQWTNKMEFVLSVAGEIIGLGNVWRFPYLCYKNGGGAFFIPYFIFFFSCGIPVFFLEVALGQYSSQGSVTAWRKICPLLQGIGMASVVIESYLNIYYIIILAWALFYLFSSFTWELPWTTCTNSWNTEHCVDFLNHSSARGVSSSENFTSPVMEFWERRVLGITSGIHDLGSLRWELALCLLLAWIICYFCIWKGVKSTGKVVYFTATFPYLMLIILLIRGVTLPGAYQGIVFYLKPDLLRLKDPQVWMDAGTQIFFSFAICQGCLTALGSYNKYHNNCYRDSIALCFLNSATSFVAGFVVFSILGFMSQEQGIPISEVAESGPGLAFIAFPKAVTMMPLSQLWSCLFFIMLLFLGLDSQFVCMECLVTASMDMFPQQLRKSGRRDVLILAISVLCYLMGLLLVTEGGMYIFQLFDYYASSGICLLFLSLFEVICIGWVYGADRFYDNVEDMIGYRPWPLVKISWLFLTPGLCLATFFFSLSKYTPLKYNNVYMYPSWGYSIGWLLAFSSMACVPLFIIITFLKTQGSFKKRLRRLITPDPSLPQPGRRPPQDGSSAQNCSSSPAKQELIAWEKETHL
Experiment: Inhibition of mouse BGT1 mediated [3]GABA uptake expressed in HEK293 cells after 3 mins by scintillation counting
readoutKind: IC50

The following molecules have reported results that may help.
{"columns": ["molecule", "IC50"],
 "data": [
  ["C=CC(=O)N1CCCC12CCCCC2", "> 5 mM"],
  ["O=C(CCN1CCNCC1)N1CCCC12CCCCC2", "> 1 mM"],
  ["C=CCN1C(=O)CCC12CCCC21OCCO1 (stereo not given)", "> 1 mM"],
  ["O=C(CCN1CCOCC1)N1CCCC12CCCCC2", "> 5 mM"],
  ["O=C(CCN1CCCCC1)N1C(=O)CCC12CCCCC2", "> 1 mM"],
  ["CCN(CC)CCC(=O)N1C(=O)CCC12CCCCC2", "> 1 mM"]
]}

QUERY: IC50 lookup needed for CCOC(=O)C1CCCN(CCC(=O)N2C(=O)CCC23CCCCC3)C1 (stereo not given) , thanks.
RESULT: 0.164 mM

QUERY: Tell me the measured IC50 of CCOC(=O)C1CCCN(CCC(=O)N2C(=O)C=CC23CCCC32OCCO2)C1 (stereo not given) , please.
RESULT: > 1 mM

QUERY: Report IC50 for "C=CC(=O)N1C(=O)CCC12CCCCC2" please.
RESULT: 0.103 mM

QUERY: Query (molecule): "COC(=O)C1=CCCN(CCC(=O)N2CCCC23CCCCC3)C1" ; field requested: IC50
RESULT: 2.3 mM
